Source listed as ChEMBL document CHEMBL1201862.

What follows is a collection of IC50 values obtained with Glyceraldehyde-3-phosphate dehydrogenase (Homo sapiens, UniProt P04406).
Sequence (P04406 whole entry): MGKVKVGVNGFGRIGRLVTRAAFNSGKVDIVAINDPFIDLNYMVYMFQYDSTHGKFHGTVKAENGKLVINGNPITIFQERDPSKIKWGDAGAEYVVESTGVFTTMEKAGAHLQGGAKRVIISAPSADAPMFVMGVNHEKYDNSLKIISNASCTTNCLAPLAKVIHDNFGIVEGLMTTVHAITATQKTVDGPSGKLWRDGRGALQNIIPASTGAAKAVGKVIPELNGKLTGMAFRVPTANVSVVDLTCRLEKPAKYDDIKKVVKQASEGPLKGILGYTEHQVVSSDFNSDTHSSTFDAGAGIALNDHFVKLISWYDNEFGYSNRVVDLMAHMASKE

# entrySmiles, observedValue
data = [
    ("CCCCSc1nnc(N)[nH]1", "> 100 µM (not active)"),
    ("COc1cc(S(=O)(=O)Nc2cccnc2)c(OC)cc1Br", "> 100 µM (not active)"),
    ("O=S(=O)(Nc1ccccc1I)c1cnc2ccccc2c1", "> 10 µM (inconclusive)"),
    ("O=C1C(Cl)=C(Nc2ccc(F)cc2)C(=O)N1c1ccc(Cl)c(Cl)c1", "> 100 µM (not active)"),
]

Attention now shifts to the item below.
Item: COc1ccccc1-c1nnc(SCC(=O)Nc2ccc(C)c(C)c2)[nH]1 Test system: Glyceraldehyde-3-phosphate dehydrogenase (Homo sapiens, UniProt P04406) Read-out: IC50 Value: ?
> 100 µM (not active)

* * *

# targetOfAssay: Phospholipase A2 (Homo sapiens, UniProt P04054);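 also: confirmatory dose-response counterscreen on phospholipase A2, testing hits that came from an ultra-high-throughput screen for ATG4B inhibitors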
# Sequence (P04054 whole entry): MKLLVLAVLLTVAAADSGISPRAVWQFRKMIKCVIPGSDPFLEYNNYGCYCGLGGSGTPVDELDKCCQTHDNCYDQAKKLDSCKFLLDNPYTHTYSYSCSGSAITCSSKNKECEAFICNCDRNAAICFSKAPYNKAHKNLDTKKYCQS
# Assay type: functional
Active and inactive are the calls of the source.
Use one of these outcomes when replying: TRUE for active, FALSE for inactive

# fetch the recorded call for CC(C)C(Sc1nc(-c2ccccc2)cc(-c2ccccc2)c1C#N)C(=O)O (centres undefined) here
TRUE

# fetch the recorded call for COc1ccc(-c2n[nH]c(C(F)(F)F)c2-c2cc3ccccc3o2)c(O)c1 here
TRUE

# fetch the recorded call for O=C(Oc1c(-c2ccccc2)c(=O)n2c3c(cccc13)CC2)c1ccc(F)cc1 here
TRUE

# fetch the recorded call for O=C(O)COc1ccccc1/C=C1\SC(=S)N(/N=C/c2ccccc2O)C1=O here
FALSE

* * *

Reported EC50 values are given for each entry in this list.
# Tested on: H4
# assayRemarks: Luminescence Cell-Based Dose Response HTS to Identify Activators of 5'UTR Stem-Loop Driven Prion Protein mRNA Translation in H4 Neuroglioblastoma Cells. [Related pubchem assays: 1829 (Project Summary), 1814 (Primary HTS)]
# Format: functional
# assayConditions: Homo sapiens
Calls of active or inactive are those of the source.

Some solved entries appear below for comparison.
# entrySmiles, EC50
data = [
    ("Cn1c(=O)n(/N=C/c2ccccc2)c2ccccc21", "31 µM (active)"),
    ("CCc1n[nH]c(SCc2ccc(OCC(C)C)cc2)n1", "> 120 µM (not active)"),
    ("O=C(N/N=C/c1ccc(Cl)cc1)c1ccc2c(c1)OCO2", "2.44 µM (active)"),
    ("CC(C)c1ccc2[nH]c3c(c2c1)[C@@H]1CCN2C(=O)CCC[C@H](C3)[C@H]12", "> 120 µM (not active)"),
]

Data request, read-out EC50, for O=C1NC(c2ccccc2)=N/C1=C/c1ccco1
5.71 µM (active)

Data request, read-out EC50, for Cc1cc(C)nc(NC(=O)CSc2nc3ccccc3s2)n1
15.1 µM (active)

Data request, read-out EC50, for O=S(=O)(c1ccc(Cl)s1)N1CCCc2cccc(O)c21
45.3 µM (active)

Data request, read-out EC50, for CC(=O)Nc1ccc2c(c1)ncn2-c1ccccc1
> 120 µM (not active)

Data request, read-out EC50, for CC(=O)c1ccc(NC(=O)CSc2nc(=O)cc(N)n2-c2ccccc2)cc1
10.9 µM (active)

* * *

Reported IC50 values are given for each entry in this list.
# targetOfAssay: Kappa-type opioid receptor (Homo sapiens, UniProt P41145)
# Sequence (P41145 whole entry): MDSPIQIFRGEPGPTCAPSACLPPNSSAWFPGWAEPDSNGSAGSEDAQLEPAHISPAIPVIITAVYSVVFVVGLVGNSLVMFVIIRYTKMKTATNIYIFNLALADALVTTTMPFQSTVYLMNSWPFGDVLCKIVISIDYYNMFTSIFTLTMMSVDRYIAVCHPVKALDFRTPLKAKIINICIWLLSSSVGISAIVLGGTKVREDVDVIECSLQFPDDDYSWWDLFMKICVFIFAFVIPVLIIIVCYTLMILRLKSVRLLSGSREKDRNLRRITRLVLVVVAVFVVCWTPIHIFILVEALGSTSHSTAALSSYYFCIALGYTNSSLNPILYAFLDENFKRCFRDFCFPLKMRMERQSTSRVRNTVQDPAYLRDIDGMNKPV
# Type: functional

Some solved entries appear below for comparison.
# molecule, IC50
measured = [
    ("COCC/N=c1\\scc(-c2cc(OC)ccc2OC)n1/N=C/c1c[nH]c2ccccc12", "3.86 µM"),
    ("Cc1cccc(Cc2cnc(N3C(=N)SC(C)C3=O)s2)c1 (stereo not drawn)", "> 32 µM"),
]

Item: CCN(CC)C(CNC(=O)c1cc(=O)[nH]c2ccccc12)c1ccccc1Cl (stereo not drawn) Test system: Kappa-type opioid receptor (Homo sapiens, UniProt P41145) Read-out: IC50 Value: ?
14.6 µM

* * *

# targetOfAssay: Prothrombin (Homo sapiens)
# assayRemarks: Thrombin 1536 HTS Dose Response Confirmation. [Related pubchem assays: 1046 (Thrombin 1536 HTS; hits were confirmed in this assay)]
# Type: functional
Active and inactive are the calls of the source.
Reported IC50 values are given for each entry in this list.

Some solved entries appear below for comparison.
# compound, IC50
measured = [
    ("O=C1CCC(C(=O)Nc2cccc3ccccc23)N1 (centres undefined)", "> 50 µM (not active)"),
    ("C=CCN1C(=O)C(C(C)CC)NC1=S (centres undefined)", "> 50 µM (not active)"),
    ("C=C(C)CN(CC)C(=O)CC1C(=O)NCCN1CC(C)(C)C (centres undefined)", "> 50 µM (not active)"),
]

Data request, read-out IC50, for O=C(CC1(O)C(=O)Nc2ccc(Br)cc21)c1ccc2c(c1)OCO2 (centres undefined)
2.3 µM (active)

* * *

Reported AC50 values are given for each entry in this list.
# assayRemarks: ZM109 Env clade C HIV-1 fusion inhibitors, dose response, HeLa effector, CEM target cells, luciferase, cherry-pick (AID 652058)
# Format: functional, cell-based
Calls of active or inactive are those of the source.

Some solved entries appear below for comparison.
# entrySmiles, AC50
rows = [
    ("CCOc1cccc(-c2nnc3sc(C4CCCCC4)nn23)c1", "21.4 µM (active)"),
    ("COc1ccccc1CN(C)C(=O)CN1CCN(C(=O)c2cccs2)CC1", "32.8 µM (active)"),
    ("Cc1ccc(C(=O)Nc2cnc3ccccc3c2)cc1", "13.9 µM (active)"),
]

Data request, read-out AC50, for COc1ccc(-c2nn(C)c(=O)c3ccccc23)cc1NC(=O)Cn1nc(C)c2ccccc2c1=O
6.21 µM (active)

* * *

Reported IC50 values are given for each entry in this list.
# targetOfAssay: Induced myeloid leukemia cell differentiation protein Mcl-1 (Homo sapiens)
# Sequence (Q07820 whole entry): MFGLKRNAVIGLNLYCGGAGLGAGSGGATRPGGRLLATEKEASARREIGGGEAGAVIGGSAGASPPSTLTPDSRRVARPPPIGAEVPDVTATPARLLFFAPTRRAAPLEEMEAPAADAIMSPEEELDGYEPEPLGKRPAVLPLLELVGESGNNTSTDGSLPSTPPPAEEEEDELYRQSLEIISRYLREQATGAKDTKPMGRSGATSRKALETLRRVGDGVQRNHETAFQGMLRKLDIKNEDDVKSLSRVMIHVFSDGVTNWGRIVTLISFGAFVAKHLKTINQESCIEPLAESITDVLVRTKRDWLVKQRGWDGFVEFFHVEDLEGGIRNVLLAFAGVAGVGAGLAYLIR
# Format: functional
Calls of active or inactive are those of the source.

Some solved entries appear below for comparison.
# entrySmiles, IC50
measured = [
    ("NC(=O)c1nn(CC(=O)Nc2ccc3c(c2)OCO3)cc1[N+](=O)[O-]", "15.3 µM (not active)"),
    ("COc1ccc(OCC(=O)Nc2nnc(-c3ccco3)s2)cc1", "2.82 µM (active)"),
    ("CN(C)c1ccc(CC(=O)c2nc3ccccc3s2)cc1", "2.73 µM (active)"),
    ("CC1=C(C#N)C(=O)NC(=O)/C1=C\\c1ccc(-c2ccc(C)cc2[N+](=O)[O-])o1", "2.68 µM (active)"),
    ("COc1cccc2c(S)c(CCC(C)=O)c(C)nc12", "< 0.4 µM (active)"),
]

Attention now shifts to the item below.
Data request, read-out IC50, for COc1ccc(N2C(=O)/C(=C/C=C/c3ccccc3[N+](=O)[O-])C(=O)NC2=S)cc1
0.73 µM (active)

* * *

# targetOfAssay: Protein skinhead-1 (Caenorhabditis elegans)
# Sequence (P34707 whole entry): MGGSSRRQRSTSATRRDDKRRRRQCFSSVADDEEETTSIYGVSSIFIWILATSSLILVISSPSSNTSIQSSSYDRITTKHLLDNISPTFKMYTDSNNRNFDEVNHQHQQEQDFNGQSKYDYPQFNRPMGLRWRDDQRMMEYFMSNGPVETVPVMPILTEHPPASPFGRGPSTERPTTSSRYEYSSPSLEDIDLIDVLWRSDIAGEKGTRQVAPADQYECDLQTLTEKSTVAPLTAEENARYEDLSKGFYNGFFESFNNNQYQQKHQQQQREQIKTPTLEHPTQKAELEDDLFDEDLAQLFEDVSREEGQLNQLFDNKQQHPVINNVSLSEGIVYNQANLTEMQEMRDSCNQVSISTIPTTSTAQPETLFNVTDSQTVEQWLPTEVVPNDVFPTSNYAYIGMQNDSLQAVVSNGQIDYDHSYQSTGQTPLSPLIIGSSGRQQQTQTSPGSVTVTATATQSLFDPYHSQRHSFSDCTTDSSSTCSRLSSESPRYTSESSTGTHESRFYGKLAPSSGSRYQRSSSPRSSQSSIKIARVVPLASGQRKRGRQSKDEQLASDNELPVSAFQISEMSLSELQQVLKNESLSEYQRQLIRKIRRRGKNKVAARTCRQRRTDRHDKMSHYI
# Assay type: functional
The source made the active and inactive calls.
Reported IC50 values are given for each entry in this list.

Some solved entries appear below for comparison.
# molecule, IC50
measured = [
    ("O=C(C=Cc1cccs1)c1ccc(Cl)s1", "19.7 µM (active)"),
    ("O=[N+]([O-])c1cccc(-c2csc(Nc3ccccc3)n2)c1", "> 100 µM (inactive)"),
    ("CCn1c(C)c(C)c2cc(C(=O)N3CCc4ccccc4C3)ccc21", "> 100 µM (inactive)"),
]

Data request, read-out IC50, for c1ccc(-c2csc(-c3ccncc3)n2)cc1
4.05 µM (active)

Data request, read-out IC50, for CCOCCCNC(=O)C(c1ccc(Cl)cc1)N1CCC2(CC1)OCCO2 (stereo unspecified)
> 100 µM (inactive)

Data request, read-out IC50, for COc1cccc(COc2cc3ccccc3nc2C)c1
80.1 µM (inactive)
